Items are presented alongside their recorded Kd.
molecular target: Human STAT6 (truncated, aa122-658, with N-terminal His-tag) (Homo sapiens); construct: Human STAT6 (truncated, aa122-658, with N-terminal His-tag, expressed in insect cells); His-tag (N); assay: Surface plasmon resonance (SPR) assay, binding to human STAT6; conditions: Biacore 8K, 25° C, immobilized human STAT6 on CM5 chip, multi-cycle kinetics; geometric mean
READOUT NAME: Kd (nM)

compound=CN(C)C(=O)c1ccc(C2CCN(Cc3cc4c(-n5ccc(N)c(F)c5=O)ccnc4n3C)CC2)cc1 readout_name=Kd readout_number=22.3
compound=Cc1cn(-c2ccnc3c2cc(CN2CCC(c4ccc(C(=O)N(C)C)cc4)CC2)n3C)c(=O)nc1N readout_name=Kd readout_number=91.8
compound=CN(C)C(=O)c1ccc(C2CCN(Cc3cc4c(-n5cc(F)c(N)cc5=O)ccnc4n3C)CC2)cc1 readout_name=Kd readout_number=32.9
compound=CN(C)C(=O)c1ccc(C2CCN(Cc3cc4c(-n5ccc(NC(C)(C)C)cc5=O)ccnc4n3C)CC2)cc1 readout_name=Kd readout_number=4970
compound=CN(C)C(=O)c1ccc(C2CCN(Cc3cc4c(-n5ccc(NCC6CC6)cc5=O)ccnc4n3C)CC2)cc1 readout_name=Kd readout_number=99.8
compound="CNc1ccn(-c2ccnc3c2cc(CN2CC[C@H](c4ccc(C(=O)N(C)C)cc4)[C@H](F)C2)n3C)c(=O)c1 (single isomer, unassigned)" readout_name=Kd readout_number=67.5
compound=CNc1ccn(-c2ccnc3c2cc(CN2CCC(c4ccc(C(=O)N(C)C)cc4OC)CC2)n3C)c(=O)c1 readout_name=Kd readout_number=51.6

----------
target: Human STAT6 (truncated, aa122-658, with N-terminal His-tag) (Homo sapiens, UniProt P42226); construct: Human STAT6 (truncated, aa122-658, with N-terminal His-tag, expressed in insect cells); His-tag (N); experiment: Surface plasmon resonance (SPR) assay, binding to human STAT6; details: Biacore 8K, 25° C, immobilized human STAT6 on CM5 chip, multi-cycle kinetics; geometric mean
Sequence (P42226 122-658): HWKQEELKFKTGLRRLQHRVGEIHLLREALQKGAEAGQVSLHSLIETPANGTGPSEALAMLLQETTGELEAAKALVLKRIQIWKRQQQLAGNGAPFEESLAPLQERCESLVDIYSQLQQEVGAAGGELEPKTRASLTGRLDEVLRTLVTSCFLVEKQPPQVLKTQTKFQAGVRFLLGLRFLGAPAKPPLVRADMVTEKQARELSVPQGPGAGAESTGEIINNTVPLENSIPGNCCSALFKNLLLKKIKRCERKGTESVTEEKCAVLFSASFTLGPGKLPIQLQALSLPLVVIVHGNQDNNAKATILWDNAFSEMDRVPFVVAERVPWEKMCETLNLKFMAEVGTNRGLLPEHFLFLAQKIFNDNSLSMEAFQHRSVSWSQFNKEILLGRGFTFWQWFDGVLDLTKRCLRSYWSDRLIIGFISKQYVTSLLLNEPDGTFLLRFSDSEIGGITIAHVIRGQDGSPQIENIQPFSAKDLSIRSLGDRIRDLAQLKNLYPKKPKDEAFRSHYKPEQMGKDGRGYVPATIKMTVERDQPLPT
pKd: −log10 of the molar value.
Items are presented alongside their recorded pKd.
READOUT NAME: pKd

molecule="CN(C)C(=O)c1ccc(C2CCN(Cc3cc4c(-n5ncc(N)cc5=O)ccnc4n3C)CC2)cc1 [Example 1ab4]" readout_number=6.65
molecule="CN(C)C(=O)c1ccc(C2CCN(Cc3cc4c(-n5ccc(NCc6ccccc6)cc5=O)ccnc4n3C)CC2)cc1 [Example 1d12]" readout_number=7.51
molecule="CNc1ccn(-c2ccnc3c2cc(CN2CCN(c4ccc(C(=O)N(C)C)cn4)CC2)n3C)c(=O)c1 [Example 1m7]" readout_number=6.13
molecule="CN(C)C(=O)c1ccc(C2CCN(Cc3cc4c(-n5ccc(NCc6ccc(F)c(F)c6)cc5=O)ccnc4n3C)CC2)cc1 [Example 1d14]" readout_number=6.91
molecule="[2H]C([2H])([2H])N(C(=O)c1ccc(N2CCN(Cc3cc4c(-n5ccc(NC)cc5=O)ccnc4n3C)CC2)nc1)C([2H])([2H])[2H] [Example 1m8]" readout_number=6.19
molecule="CNc1ccn(-c2ccnc3c2cc(CN2CC[C@H](c4ccc(C(=O)N(C)C)cc4)[C@@H](F)C2)n3C)c(=O)c1 (single isomer, unassigned) [Example 1f3]" readout_number=7.49
